- System: HT-144
- testName: cells
- Assay type: functional, cell-based, Homo sapiens
- recordedConditions: Homo sapiens, HT-144
- Description: SANGER: Inhibition of human HT-144 cell growth in a cell viability assay.
pIC50: −log10 of the molar value.

>  <smilesRepresentation>
CC1=C(/C=C/C(C)=C/C=C/C(C)=C/C(=O)O)C(C)(C)CCC1

>  <pIC50>
< 5.00

$$$$
>  <smilesRepresentation>
CS(=O)(=O)N1CCN(Cc2cc3nc(-c4cccc5[nH]ncc45)nc(N4CCOCC4)c3s2)CC1

>  <pIC50>
< 5.40

$$$$
>  <smilesRepresentation>
O=S(=O)(O)c1ccc2cc(/N=N/c3cc(S(=O)(=O)O)c4cccnc4c3O)ccc2c1

>  <pIC50>
< 4.80

$$$$
>  <smilesRepresentation>
Cc1ccc(NC(=O)c2ccc(CN3CCN(C)CC3)cc2)cc1Nc1nccc(-c2cccnc2)n1

>  <pIC50>
< 5.70

$$$$

----------
- Tested on: HCC2218;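 further: cell viability assay read-out, with IC50 given as the concentration that inhibits growth of the cell line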
- testName: cells
- Type: functional, cell-based, Homo sapiens
- recordedConditions: Homo sapiens, HCC2218
- Description: SANGER: Inhibition of human HCC2218 cell growth in a cell viability assay.

>  <smilesRepresentation>
Cc1cc(N2CCOCC2)cc2[nH]c(-c3c(NC[C@@H](O)c4cccc(Cl)c4)cc[nH]c3=O)nc12

>  <IC50>
> 5.12 µM

$$$$
>  <smilesRepresentation>
CC1=C(/C=C/C(C)=C/C=C/C(C)=C/C(=O)O)C(C)(C)CCC1

>  <IC50>
> 10 µM

$$$$
>  <smilesRepresentation>
COc1ccc(-c2cc3nccn3c(Nc3ncccc3C(N)=O)n2)cc1OC

>  <IC50>
> 8 µM

$$$$
>  <smilesRepresentation>
NC(=O)Nc1cc(-c2cccc(F)c2)sc1C(=O)N[C@H]1CCCNC1

>  <IC50>
> 2 µM

$$$$

----------
Reported IC50 values are given for each entry in this list.
- Test system: EGI-1;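 further: cell viability readout used to gauge growth inhibition of EGI-1 cells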
- testName: cells
- Assay type: functional, cell-based
- recordedConditions: Homo sapiens
- Description: SANGER: Inhibition of human EGI-1 cell growth in a cell viability assay.

>  <molecule>
NC(=O)c1ccc(N(C(N)=O)c2c(F)cccc2F)nc1-c1ccc(F)cc1F [VX-702]

>  <IC50>
> 2 µM

$$$$
>  <molecule>
COc1ccc(-c2cc3nccn3c(Nc3ncccc3C(N)=O)n2)cc1OC

>  <IC50>
> 8 µM

$$$$
>  <molecule>
CC1=C(/C=C/C(C)=C/C=C/C(C)=C/C(=O)O)C(C)(C)CCC1 [TRETINOIN]

>  <IC50>
> 10 µM

$$$$

----------
Reported IC50 values are given for each entry in this list.
- Tested on: MOLT-4;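 further: growth inhibition of MOLT-4 cells, determined with a cell viability readout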
- testName: cells
- Type: functional, cell-based, Homo sapiens
- recordedConditions: Homo sapiens, MOLT-4
- Description: SANGER: Inhibition of human MOLT-4 cell growth in a cell viability assay.

>  <molecule>
OC[C@H](Cc1ccccc1)Nc1nc(Oc2ccc3c(c2)CCC3)nc2c1ncn2Cc1ccc(-c2ccccc2)cc1

>  <IC50>
> 10.2 µM

$$$$
>  <molecule>
C[C@@H](Oc1cc(-c2cnn(C3CCNCC3)c2)cnc1N)c1c(Cl)ccc(F)c1Cl

>  <IC50>
> 2 µM

$$$$
>  <molecule>
C=CC(=O)N1CCCC(Nc2nc(Nc3ccc(N(C)C(=O)CC)cc3)nc3[nH]cnc23)C1 (stereo not drawn)

>  <IC50>
> 10.2 µM

$$$$

----------
Reported pIC50 values are given for each entry in this list.
- Test system: MZ1-PC;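 further: cell viability assay measuring growth inhibition of human MZ1-PC cells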
- testName: cells
- Assay type: functional, cell-based, Homo sapiens
- recordedConditions: Homo sapiens, MZ1-PC
- Description: SANGER: Inhibition of human MZ1-PC cell growth in a cell viability assay.
pIC50: −log10 of the molar value.

>  <smilesRepresentation>
NC(=O)c1ccc(N(C(N)=O)c2c(F)cccc2F)nc1-c1ccc(F)cc1F

>  <pIC50>
< 5.70

$$$$
>  <smilesRepresentation>
O=C(NCCCNc1nc(Nc2cccc(NC(=O)N3CCCC3)c2)ncc1I)c1cccs1

>  <pIC50>
< 5.30

$$$$
>  <smilesRepresentation>
O=C1NC(=O)c2c1c(-c1ccccc1Cl)cc1[nH]c3ccc(O)cc3c21

>  <pIC50>
< 5.70

$$$$

Values from ChEMBL document CHEMBL1201861
